The values you see were collected from patent US9539260B2.

target-or-test-system: PI3K alpha (Homo sapiens (Human), UniProt P42336)
Sequence (P42336 other isoform, or with tags, fused parts or gaps): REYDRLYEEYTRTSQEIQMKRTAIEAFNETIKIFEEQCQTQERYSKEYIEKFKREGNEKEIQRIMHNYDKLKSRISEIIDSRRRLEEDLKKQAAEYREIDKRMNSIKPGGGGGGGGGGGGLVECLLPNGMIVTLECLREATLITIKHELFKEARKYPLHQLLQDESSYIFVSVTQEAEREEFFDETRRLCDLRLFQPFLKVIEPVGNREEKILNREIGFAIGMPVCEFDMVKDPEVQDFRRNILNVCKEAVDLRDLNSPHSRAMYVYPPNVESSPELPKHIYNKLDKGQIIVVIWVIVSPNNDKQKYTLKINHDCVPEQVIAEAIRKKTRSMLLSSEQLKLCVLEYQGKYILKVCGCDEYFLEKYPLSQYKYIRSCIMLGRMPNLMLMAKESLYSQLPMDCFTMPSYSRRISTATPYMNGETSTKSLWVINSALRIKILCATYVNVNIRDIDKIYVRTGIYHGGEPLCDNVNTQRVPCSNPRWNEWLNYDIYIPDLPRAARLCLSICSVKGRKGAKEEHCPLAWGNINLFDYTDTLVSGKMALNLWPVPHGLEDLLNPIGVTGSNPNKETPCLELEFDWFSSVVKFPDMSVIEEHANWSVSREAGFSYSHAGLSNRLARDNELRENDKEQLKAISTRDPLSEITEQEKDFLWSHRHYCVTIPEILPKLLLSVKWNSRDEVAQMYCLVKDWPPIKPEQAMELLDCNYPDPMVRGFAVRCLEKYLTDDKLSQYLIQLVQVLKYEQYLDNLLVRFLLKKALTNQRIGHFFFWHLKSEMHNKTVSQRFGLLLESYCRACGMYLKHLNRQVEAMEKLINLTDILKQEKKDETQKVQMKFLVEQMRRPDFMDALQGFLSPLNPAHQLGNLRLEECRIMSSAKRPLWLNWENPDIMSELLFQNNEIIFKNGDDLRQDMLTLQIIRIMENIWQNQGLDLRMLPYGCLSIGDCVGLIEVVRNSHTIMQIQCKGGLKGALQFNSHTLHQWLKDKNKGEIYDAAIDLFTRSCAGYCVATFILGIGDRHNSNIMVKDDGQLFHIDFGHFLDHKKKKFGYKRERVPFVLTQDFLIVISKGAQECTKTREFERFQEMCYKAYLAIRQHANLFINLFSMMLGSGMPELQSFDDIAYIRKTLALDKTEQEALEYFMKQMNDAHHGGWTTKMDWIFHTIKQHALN
assay-notes: Enzymatic PI3K alpha isoform inhibition (lipid kinase activity, Kinase-Glo luminescence)
condition-details: Enzymatic assay
attribute-measured: IC50

Illustrative cases are given below, each with its answer.
Need IC50, item "CCC(=O)N1CC[C@H](Oc2ccc3c(c2)N(c2ccc(C)c(C#N)c2)CCO3)C1"
5360 nM

Need IC50, item COc1ncc(N2CCOc3ccc(O[C@H]4CCN(C(=O)C5CCS(=O)(=O)C5)C4)cc32)cc1C (stereo partly drawn) [Example B13]
862 nM

Need IC50, item "Cc1cc(N2CCOc3cnc(O[C@H]4CCN(C(=O)C5CCOCC5)C4)cc32)cnc1OC(F)F"
593 nM

Hey, can you go through the list below and give me IC50 for every item?
1. COc1ncc(N2CCOc3cnc(O[C@@H]4CCN(C(=O)C5CCS(=O)(=O)CC5)C4)cc32)cc1C
2. COc1ncc(N2CCOc3ccc(O[C@H]4CCN(C(=O)C5CCOCC5)C4)cc32)cc1C#N [Example C1]
3. COc1ncc(N2CCOc3ccc(O[C@H]4CCN(C(=O)c5cncs5)C4)cc32)cc1C#N
4. Cc1cc(N2CCOc3ccc(O[C@H]4CCN(C(=O)C5CC5)C4)cc32)cnc1S(C)(=O)=O
5. Cc1cc(N2CCOc3ccc(O[C@H]4CCN(C(=O)C5CCOCC5)C4)cc32)cnc1S(C)(=O)=O
6. Cc1cc(N2CCOc3ccc(O[C@H]4CCN(C(=O)c5ccncc5)C4)cc32)cnc1S(C)(=O)=O
7. COc1ncc(N2CCOc3ccc(O[C@H]4CCN(C(=O)C5CCN(C(C)=O)CC5)C4)cc32)cc1C#N

1200 nM
300 nM
250 nM
295 nM
390 nM
589 nM
802 nM
